# Test system: UACC-62 melanoma
# test.description: NCI-60 one-dose screen, 48 h
# test.conditions: 10 µM unless noted
# Procedure: Growth inhibition of the UACC-62 human tumor cell line is measured as a screen for anti-cancer activity. Cells are grown in 96 well plates and exposed to the test compound for 48 hours. Compounds are tested at a single concentration, which is 10^-5 M for most compounds. The reported endpoint is percent growth (GI% or GIPRCNT), where numbers from 0 - 100% represent growth inhibition, and numbers from -100% - 0 represent cell death. For example, a value of 40 represents 60% growth inhibition. […]
Compounds without any hit were thinned out: in the full panel of roughly 83,000, 20% have a hit. Activity calls are given as the source filed them. The calls were made as follows: active = growth percent below 10; inactive = the rest.
Log the outcome using a class from YES (active), NO (inactive)

C=C(C)[C@@H]1CC[C@]2(C(=O)NC3CCCCC3)CC[C@]3(C)[C@H](CC[C@@H]4[C@@]5(C)CC[C@H](N)C(C)(C)[C@@H]5CC[C@]43C)[C@@H]12 ... NO
Cc1ccc(/C(N)=N/C(N)=N/c2nc3ccccc3s2)cc1 ... NO
Fc1cc(F)cc(NNC(=S)c2ccccc2)c1 ... NO
CC(C)NC(=O)c1cc(-c2ccc(NC(=O)Nc3ccc(F)c(C(F)(F)F)c3)cc2)nc2cccnc12 ... NO
Cc1ccccc1NC(=O)Nc1nc2ccc([N+](=O)[O-])cc2s1 ... NO

How did this test come out for `CCOC(=O)c1c(NCC(=O)Nc2cccc([N+](=O)[O-])c2)sc(C(C)=O)c1C` ?
YES

How did this test come out for `Oc1[nH]c2ccc(Cl)cc2c1N=Nc1nc(N=Nc2c(O)[nH]c3ccc(Cl)cc23)nc(N2CCOCC2)n1` ?
NO

How did this test come out for `O=c1c2cc(-c3ccc(F)cc3F)ccc2n(O)c(=O)n1-c1cccc(C(F)(F)F)c1` ?
YES

How did this test come out for `CC(=C(c1ccc(OCCCN(C)C)cc1)c1ccc(OCCCN(C)C)cc1)c1ccc(Cl)cc1` ?
NO

How did this test come out for `O=S(=O)(Oc1ccc(-c2cn3ccsc3n2)cc1)c1cccc(C(F)(F)F)c1` ?
NO

How did this test come out for `Cc1ccc2c(n1)C(=O)C(Cl)=C(Nc1cc(C(F)(F)F)cc(C(F)(F)F)c1)C2=O` ?
NO

How did this test come out for `O=[N+]([O-])c1ccc(NC(=S)NNC(=S)Nc2ccc(F)cc2)cc1` ?
NO

How did this test come out for `Cc1ccc(NC2=C(Cl)C(=O)c3nc(C)ccc3C2=O)c(C)c1` ?
NO

---

# System: A498 renal
# test.description: NCI-60 one-dose screen, 48 h (100 = growth as untreated, 0 = no growth, -100 = all killed)
# test.conditions: 10 µM unless noted
Compounds without any hit were thinned out: in the full panel of roughly 83,000, 20% have a hit.
Please assign false whenever growth is at or above 60%, and true whenever it is below.

As a guide, the following entries are already answered.
O=C(CCCCCCNC(=O)C(O)(O)C(F)(F)F)Nc1ccc(-c2ccccc2)cc1 ... true
Cc1ccc2c(n1)C(=O)C(Cl)=C(Nc1cccc(C(F)(F)F)c1)C2=O ... false
CC(=O)N(O)CCCCCNC(=O)CCC(=O)N(O)CCCCCNC(=O)CCC(=O)N(O)CCCCCN(CCCCCCCCCC[P+](c1ccccc1)(c1ccccc1)c1ccccc1)CCCCCCCCCC[P+](c1ccccc1)(c1ccccc1)c1ccccc1 ... true
Cn1cc(-c2cc3ncnc(Nc4ccc(NC(=O)Nc5cc(C(C)(C)C)on5)cc4)c3s2)cn1 ... true
O=c1nc(Nc2ccc([N+](=O)[O-])cc2O)sc2ccccc12 ... true

Hello, is growth of the following molecule strictly smaller than 60%? `Cn1cc(-c2nnc(N)nc2-c2c[nH]c3ccc(F)cc23)c2cc(Br)ccc21`
true

Hello, is growth of the following molecule strictly smaller than 60%? `N#Cc1c(-c2ccc(F)cc2)cc(-c2c[nH]c3ccccc23)nc1-c1c[nH]c2ccccc12`
false

Hello, is growth of the following molecule strictly smaller than 60%? `CNCCN(C)c1ccc(Nc2cc(NC3CC3)n3ncc(C#N)c3n2)cc1NC(C)=O`
true

Hello, is growth of the following molecule strictly smaller than 60%? `O=C(CCCCCCN1CC(=O)N2[C@@H](c3ccccc3Br)c3[nH]c4ccccc4c3C[C@H]2C1=O)NO`
false

Hello, is growth of the following molecule strictly smaller than 60%? `CC1=C(C)C(=O)C(Nc2cccc(C)c2)=C(Br)C1=O`
false
